tested system: B-Raf delta1-415 (Homo sapiens, UniProt P15056)
Sequence (P15056 416-766): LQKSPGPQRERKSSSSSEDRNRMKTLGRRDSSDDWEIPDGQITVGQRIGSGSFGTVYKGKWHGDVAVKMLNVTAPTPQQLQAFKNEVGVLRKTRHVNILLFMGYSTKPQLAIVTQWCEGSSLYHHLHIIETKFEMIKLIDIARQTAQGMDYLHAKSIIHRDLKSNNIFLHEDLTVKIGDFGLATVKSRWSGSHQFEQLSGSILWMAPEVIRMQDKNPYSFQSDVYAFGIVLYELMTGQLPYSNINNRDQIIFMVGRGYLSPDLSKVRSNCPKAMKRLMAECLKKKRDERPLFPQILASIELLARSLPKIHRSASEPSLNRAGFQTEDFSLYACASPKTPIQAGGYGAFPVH
measurement description: B-Raf kinase inhibition (MAPH filter plate, 33P-ATP, MEK1 substrate)
test conditions: read-out: Biochemical IC50 B-Raf
Below is a list of entries, each paired with its recorded IC50 value.

COn1c(=O)c(-c2c(Cl)cccc2Cl)cc2cnc(Nc3cccc(CS(=O)(=O)NCCO)c3)nc21
< 0.5 µM
COCCNc1ncc2cc(-c3c(Cl)cccc3Cl)c(=O)n(OC)c2n1
< 0.5 µM
COn1c(=O)c(-c2c(Cl)cccc2Cl)cc2cnc(Nc3ccc(CC#N)cc3)nc21
< 0.1 µM

Next:
Query :: Please indicate recorded IC50 of `COc1cccc(Nc2ncc3cc(-c4c(Cl)cccc4Cl)c(=O)n(OCCN)c3n2)c1` measured with B-Raf delta1-415 (Homo sapiens, UniProt P15056).
Result :: < 0.5 µM

* * *

tested system: B-Raf delta1-415 (Homo sapiens, UniProt P15056)
measurement description: B-Raf kinase inhibition (MAPH filter plate, 33P-ATP, MEK1 substrate)
test conditions: read-out: Biochemical IC50 B-Raf
From the text: We characterized the in vitro inhibitory activity against protein kinases of compounds of the present invention by determining their IC50 values (see Table 2). Kinase: B-Raf delta1-415 (e.g., Upstate Cat. No. 14-530) Reaction Temperature: room temperature Assay Plate: 96 well U bottom plate (Greiner, 650161) MultiScreen-PH Plate: 96 well MAPH Filter Plates (Millipore, MAPHNOB50) […] Kinase: Kinase conc. yielding 50% substrate turnover as determined in titration experiment. […]
pIC50: −log10 of the molar value.
Below is a list of entries, each paired with its recorded pIC50 value.

Examples from the recorded data:
COn1c(=O)c(-c2cc(N)ccc2Cl)cc2cnc(Nc3ccccc3)nc21
> 6.30
COn1c(=O)c(-c2c(F)cccc2C(F)(F)F)cc2cnc(Nc3ccc(N4CCN(C)CC4)cc3)nc21
> 6.00
COn1c(=O)c(-c2cc(NC(=O)C(C)C)ccc2Cl)cc2cnc(Nc3ccccc3)nc21
< 6.00

Query :: Please indicate recorded pIC50 of `COCCN1CCN(C(=O)c2cc(Nc3ncc4cc(-c5c(Cl)cccc5Cl)c(=O)n(OC)c4n3)cn2C)CC1` measured with B-Raf delta1-415 (Homo sapiens, UniProt P15056).
Result :: > 6.30

Query :: Please indicate recorded pIC50 of `COn1c(=O)c(-c2c(Cl)cccc2Cl)cc2cnc(NCCOC(=O)[C@@H](N)C(C)C)nc21` measured with B-Raf delta1-415 (Homo sapiens, UniProt P15056).
Result :: > 6.30

Query :: Please indicate recorded pIC50 of `COn1c(=O)c(-c2ccccc2Cl)cc2cnc(Nc3ccccc3)nc21` measured with B-Raf delta1-415 (Homo sapiens, UniProt P15056).
Result :: > 6.30

Query :: Please indicate recorded pIC50 of `CC(=O)NCCCOn1c(=O)c(-c2c(Cl)cccc2Cl)cc2cnc(Nc3ccccc3)nc21` measured with B-Raf delta1-415 (Homo sapiens, UniProt P15056).
Result :: > 6.00

Query :: Please indicate recorded pIC50 of `COn1c(=O)c(-c2c(Cl)cccc2Cl)cc2cnc(NCc3ccccc3)nc21` measured with B-Raf delta1-415 (Homo sapiens, UniProt P15056).
Result :: > 5.00
